Sourced from patent US20240360126A1

- target-or-system: hERG K+ channel (Homo sapiens)
- Construct: expressed in transfected cells; host or cells: CHO (Chinese hamster ovary)
- assay-explanation: hERG channel inhibition assay (patch-clamp, CHO-hERG cells)
- Assay type: cell-based
- assay-context: safety ratio
Give measured hERG IC20/TLR9 IC50 for each item. Keep answers brief.

GET /value?item= CO[C@@H]1CN(c2ccc([C@H]3CCN(c4cc(C)nc5c4cnn5C)C[C@@H]3C)nc2)C[C@H]1N [Example 36] &field=hERG IC20/TLR9 IC50 returns >58.8

Sure, the documented hERG IC20/TLR9 IC50 for COC[C@H]1CN(c2ccc([C@H]3CCN(c4cc(C)nc5c4cnn5C)C[C@@H]3C)nc2)CCN1 [Example 37] is >30.1

Cc1cc(N2CC[C@H](c3ccc(N4CC(C)(N)C4)cn3)[C@@H](C)C2)c2cnn(C)c2n1 [Example 43] has a reported hERG IC20/TLR9 IC50 of >49.3

Cc1cc(N2CCC(c3ncc(N4CCNCC4)cc3C)[C@H](C)C2)c2cnn(C)c2n1 (single isomer, unassigned) [Example 25] has a reported hERG IC20/TLR9 IC50 of >102.0

---

- target-or-system: hERG K+ channel (Homo sapiens, UniProt Q12809)
- Construct: expressed in transfected cells; host or cells: CHO (Chinese hamster ovary)
- Sequence (Q12809 whole entry): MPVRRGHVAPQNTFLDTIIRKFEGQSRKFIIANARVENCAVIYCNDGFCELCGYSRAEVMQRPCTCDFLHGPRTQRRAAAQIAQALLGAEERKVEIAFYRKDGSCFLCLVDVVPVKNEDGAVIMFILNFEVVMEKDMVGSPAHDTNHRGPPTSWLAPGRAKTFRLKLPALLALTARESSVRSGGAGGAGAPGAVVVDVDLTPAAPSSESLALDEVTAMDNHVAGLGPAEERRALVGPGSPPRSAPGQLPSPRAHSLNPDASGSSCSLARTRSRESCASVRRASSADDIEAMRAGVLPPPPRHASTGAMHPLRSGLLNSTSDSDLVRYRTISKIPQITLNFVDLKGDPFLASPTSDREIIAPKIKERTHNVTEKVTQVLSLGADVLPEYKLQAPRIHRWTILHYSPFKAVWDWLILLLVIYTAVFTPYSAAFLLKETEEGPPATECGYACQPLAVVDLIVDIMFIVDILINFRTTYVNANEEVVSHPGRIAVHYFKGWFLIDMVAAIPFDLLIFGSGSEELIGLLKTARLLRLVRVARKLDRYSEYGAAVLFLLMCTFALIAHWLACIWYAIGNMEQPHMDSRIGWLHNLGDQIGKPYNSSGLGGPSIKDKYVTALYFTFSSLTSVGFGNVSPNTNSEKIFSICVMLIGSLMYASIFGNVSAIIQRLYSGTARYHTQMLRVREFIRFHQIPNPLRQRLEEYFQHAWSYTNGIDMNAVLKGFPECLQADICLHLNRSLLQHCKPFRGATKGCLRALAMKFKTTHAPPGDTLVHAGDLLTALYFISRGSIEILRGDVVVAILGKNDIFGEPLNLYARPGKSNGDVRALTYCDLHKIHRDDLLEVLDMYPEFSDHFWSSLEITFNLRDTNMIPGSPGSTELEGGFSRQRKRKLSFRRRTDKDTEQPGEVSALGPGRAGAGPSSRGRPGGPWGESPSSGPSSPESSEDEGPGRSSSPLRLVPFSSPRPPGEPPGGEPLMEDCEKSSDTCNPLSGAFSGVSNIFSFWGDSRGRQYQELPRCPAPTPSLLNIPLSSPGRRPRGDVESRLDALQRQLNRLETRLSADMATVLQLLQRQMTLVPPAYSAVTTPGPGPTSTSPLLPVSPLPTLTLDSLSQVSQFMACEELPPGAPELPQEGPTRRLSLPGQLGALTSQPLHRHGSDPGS
- assay-explanation: hERG channel inhibition assay (patch-clamp, CHO-hERG cells)
- Type: cell-based
- assay-context: safety ratio
- Method: The hERG K^+ channels were cloned in humans and stably expressed in a CHO (Chinese hamster ovary) cell line. CHOhERG cells were used for patch-clamp (voltage-clamp, whole-cell) experiments. […] After the cells were stabilized for a few minutes, the amplitude and kinetics of IKhERG were recorded at a stimulation frequency of 0.1 Hz (6 bpm). […] The amplitude and kinetics of IKhERG are recorded in each concentration of the drug which were compared to the control values (taken as 100%). […]
measurement-kind: hERG IC20/TLR7 IC50

Noted for Cc1cc(N2CCC(c3ncc(N4CCNCC4)cc3C)[C@H](C)C2)c2cnn(C)c2n1 (single isomer, unassigned) : its hERG IC20/TLR7 IC50 reads >1111.1

hERG IC20/TLR7 IC50 reading for Cc1cc(N2CC[C@@H](c3ncc(N4CC(C)(N)C4)cc3C)[C@H](C)C2)c2cnn(C)c2n1 : 550.0

Notebook: COC[C@H]1CN(c2cnc([C@@H]3CCN(c4cc(C)nc5c4cnn5C)C[C@H]3C)c(C)c2)CCN1 , hERG IC20/TLR7 IC50 read as 880.0

The compound listed as Cc1cc(N2CC[C@H](c3ccc(N4CCNCC4)cn3)[C@@H](C)C2)c2cnn(C)c2n1 shows hERG IC20/TLR7 IC50 equal to 733.3

According to the records, this compound CO[C@@H]1CN(c2cnc([C@@H]3CCN(c4cc(C)nc5c4cnn5C)C[C@H]3C)c(C)c2)C[C@H]1N displays hERG IC20/TLR7 IC50 of >833.3

---

- assay-explanation: Human microsome stability assay
- Assay type: in vitro ADME
- assay-context: 1 μM test compound, 0.5 mg/mL liver microsomal protein, 37° C.
measurement-kind: Clearance of Human microsome
Number first, unit second.

Short answer for Cc1cc(N2CCC(c3ccc(N4CCNCC4)cn3)CC2)c2cnn(C)c2n1 : Clearance of Human microsome was 8.2 mL/min/kg

So for Cc1cc(N2CC[C@H](c3ccc(N4CCOC[C@@H](N)C4)cn3)[C@@H](C)C2)c2cnn(C)c2n1 , the logged Clearance of Human microsome turned out to be 8.1 mL/min/kg

So, Cc1cc(N2CC[C@H](c3ccc(N4CC5(CNCCO5)C4)cn3)[C@@H](C)C2)c2cnn(C)c2n1 ? Its Clearance of Human microsome was 7.8 mL/min/kg

# Clearance of Human microsome (compound: Cc1cc(N2CC[C@H](c3ccc(N4CC[C@@H](N)[C@H](F)C4)cn3)[C@@H](C)C2)c2cnn(C)c2n1 ) is 7.2 mL/min/kg

Given item Cc1cc(N2CCC(c3cnc(N4CCNCC4)cc3C)[C@H](C)C2)c2cnn(C)c2n1 (single isomer, unassigned) [Example 21] , the value recorded as its Clearance of Human microsome is 7.8 mL/min/kg

In plain terms, Cc1cc(N2CC[C@@H](c3ccc(N4CCNCC4)cn3)[C@H](C)C2)c2cnn(C)c2n1 has a documented Clearance of Human microsome of 9.8 mL/min/kg

Per the record, Cc1cc(N2CC[C@H](c3ccc(N4CCNCC4)cn3)[C@@H](C)C2)c2cnn(C)c2n1 has Clearance of Human microsome of 6.2 mL/min/kg

Looking up COC[C@H]1CN(c2cnc([C@@H]3CCN(c4cc(C)nc5c4cnn5C)C[C@H]3C)c(C)c2)CCN1 , I see its Clearance of Human microsome listed as 6.8 mL/min/kg

Cc1cc(N2CC[C@@H](c3ncc(N4CC(C)(N)C4)cc3C)[C@H](C)C2)c2cnn(C)c2n1 yielded Clearance of Human microsome of 8.8 mL/min/kg

Quick note, Clearance of Human microsome for Cc1cc(N2CCc3c(c(C)nn3CC34CCC(NC(=O)[C@@H]5COCCN5)(CC3)CC4)C2)c2cnn(C)c2n1 [Example N8, reference compound] landed at 16.3 mL/min/kg
